# Protocol summary: protein stability index of a GFP-peptide fusion (yeast GPS) (PSI 1-4); higher = more stable; sorted into four equal gates, so the index is relative within each strain
# Condition context: pdr5∆
met means recorded protein stability index is 3 or above; not met means it is below 3.

Query block: Textbook exercise: given the entry PKYESLKLEYYNLLVKI [RPN5] , state whether its protein stability index is greater than or equal to 3.
Result block: not met

Query block: Textbook exercise: given the entry AAQTNATFLKLAAPQLV [RPT5] , state whether its protein stability index is greater than or equal to 3.
Result block: met

Query block: Textbook exercise: given the entry TLEAKIGGLLSKVREEV [RPO31] , state whether its protein stability index is greater than or equal to 3.
Result block: met

Query block: Textbook exercise: given the entry DDENEPKRKRRLPVSED [YOR098C/NUP1] , state whether its protein stability index is greater than or equal to 3.
Result block: met

Query block: Textbook exercise: given the entry IPSGNVWNYTFMGTAFN [PRP8] , state whether its protein stability index is greater than or equal to 3.
Result block: not met

Query block: Textbook exercise: given the entry TNKISPKDFSPNFTGID [SSN2] , state whether its protein stability index is greater than or equal to 3.
Result block: not met

Query block: Textbook exercise: given the entry TVMYQRRSKMNPLWNAI [PRE4] , state whether its protein stability index is greater than or equal to 3.
Result block: met

Query block: Textbook exercise: given the entry DDIFIRYLTLLSNEFTA [ECM29] , state whether its protein stability index is greater than or equal to 3.
Result block: not met

Query block: Textbook exercise: given the entry KTRVGSVTAQVYKIALR [RPC82] , state whether its protein stability index is greater than or equal to 3.
Result block: not met

Query block: Textbook exercise: given the entry VNECIAQSHQRFNAKVS [CDC53] , state whether its protein stability index is greater than or equal to 3.
Result block: not met

Query block: Textbook exercise: given the entry LRKIDMLQKKLVEVEDE [SRB7] , state whether its protein stability index is greater than or equal to 3.
Result block: met

Query block: Textbook exercise: given the entry QEKNFQTGIFVYQNNIT [RPB5] , state whether its protein stability index is greater than or equal to 3.
Result block: not met

Query block: Textbook exercise: given the entry FIRSTNSWFDVTWRTFT [FAS1] , state whether its protein stability index is greater than or equal to 3.
Result block: not met
